target_desc: pooled human IgG (human IgG1, 2, 3 and 4)
measured_property: Enzyme Activity Endpoint Assay: Fab′2 (ng/µL)
Give just the number in ng/µL; leave the unit off.

INSERT INTO results (protein, endpoint_result) VALUES
  ('PRT-662 (protein) MQITSVWTKGVTPLTPEQFRYNNEDVFHAPYLAHQGWYDITKAFDGKDNLLCGAATAGNMLHWWFDQNKTEIEAYLSKHPEKQKIIFNNQELFDLRAAINTKDSQTNSQLFNYFRDKAFPNLSARQLGVMPDLVLDMFINGYYLNVFKTQSTDVNRPYQDKDKRGGIFDAVFTRGDQTTLLTARHDLKNKGLNDISTLIKQELTEGRALALSHTYANVSISHVINLWGADFNAEGNLEAIYVTDSDANASIGMKKYFVGINASGHVAISAKKIEGENIGAQVLGLFTLSSGKDIWQKLSLEHHHHHH', 8);

Now let's try a different one.
## Task Looking for the measured Enzyme Activity Endpoint Assay: Fab′2 of PRT-487 (protein) MVTSVWTKGVTPPTDFIKGEDVFHAPYKAGQGWYDITKTFNGKDNLLCGAATAGNMLHWWFDQNKDQIERYLKEHPEKQKIIFNNQELFDLKAAIDTKDSQTDSKLFEYFKEKAFPYLSTKHLGVFPDHVLDMFINGYRLSLTNHGPTPVKEGSKDKRGGIFDAVFTRGVQSKLLTSRHDLKNKTLKEISDLIKQELTEGKALGLSHTYANVRINHVINLWGADFDSEGNLKAIYVTDSDTNASIGMKKYFVGVNSAGKVAISAKEIKEDNIGAQVLGLFTLSTGQDIWNQTNLEHHHHHH , can you help?
## Result 0
